I'd appreciate it if you could supply pIC50 values for the items below.
Test system: MV4-11 cell line
Test: Antiproliferative activity on MV4-11 cell line (AlamarBlue)
Format: cell-based
Conditions: Homo sapiens, 120 h incubation, average of several runs, read-out: MV-4-11 IC50
Worth noting: pIC50 values are minus log10 of concentrations stated in mol/L.

# input molecule: N#Cc1ccc2nccc(NCCc3ccc4cc(C(=O)N5CCN(CC(F)(F)F)CC5)ccc4c3)c2c1 ; wanted: its pIC50
6.95

# input molecule: CN1CCN(C(=O)c2ccc3cc(CCSc4ccnc5ccc(C#N)cc45)ccc3c2)CC1 ; wanted: its pIC50
5.58

# input molecule: CN1CCN(C(=O)c2ccc3cc(CCNc4ccnc5ncc(C#N)cc45)ccc3c2)CC1 ; wanted: its pIC50
5.48

# input molecule: N#Cc1ccc2nccc(NCCc3ccc4cc(C(=O)N5CCNCC5)ccc4c3)c2c1 ; wanted: its pIC50
7.72

# input molecule: CCN1CCN(C(=O)c2ccc3cc(CCNc4ccnc5ccc(C#N)cc45)ccc3c2)CC1 ; wanted: its pIC50
7.10

# input molecule: N#Cc1ccc2nccc(NCCc3ccc4cc(C(=O)N5CCOCC5)ccc4c3)c2c1 ; wanted: its pIC50
7.24

# input molecule: CN1CCN(C(=O)c2ccc3cc(CCNc4c(Cl)cnc5ccc(C#N)cc45)ccc3c2)CC1 ; wanted: its pIC50
6.97

# input molecule: CC(C)N1CCN(C(=O)c2ccc3cc(CCNc4ccnc5ccc(C#N)cc45)ccc3c2)CC1 ; wanted: its pIC50
7.04

# input molecule: CN1CCN(C(=O)c2ccc3cc(CCOc4ccnc5ccc(C#N)cc45)ccc3c2)CC1 ; wanted: its pIC50
6.22

# input molecule: CN1CCN(C(=O)c2ccc3cc(CCNc4ccnc5ccc(C#N)cc45)ccc3c2)CC1 ; wanted: its pIC50
6.90
